# Tested Target: T1, human TNFR1 (recombinant, R&D Systems cat no. 636-R1/CF, biotinylated) (human, UniProt P19438 30-211, limits assumed, biotinylated with EZ-Link NHS-LC-LC-biotin)
# T1 construct: it is not tied to the BIAcore reagent; also called p55; hTNFR1
# T1 sequence (looked up): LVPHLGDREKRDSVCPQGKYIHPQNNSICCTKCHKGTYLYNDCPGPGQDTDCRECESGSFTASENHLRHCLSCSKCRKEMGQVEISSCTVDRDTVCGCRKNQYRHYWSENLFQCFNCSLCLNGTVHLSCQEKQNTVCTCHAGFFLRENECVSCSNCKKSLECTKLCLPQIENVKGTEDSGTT
# Assay Name: BIAcore, human TNFR1

# Binder, Unit Text, Kd
rows = [
    ("DOM1h-574-15 (other, VH dAb) VH: EVQLLESGGGLVQPGGSLRLSCAASGFTFVKYSMGWVRQAPGKGLEWVSQISNTGDHTYYADSVKGRFTISRDNSKNTLYLQMNSLRAEDTAVYYCAIYTGRWEPFDYWGQGTLVTVSS", "nM", 20),
    ("DOM1h-574 (other, VH dAb; also called parental dAb) VH: EVQLLESGGGLVQPGGSLRLSCAASGFTFVKYSMGWVRQAPGKGLEWVSQISNTGGHTYYADSVKGRFTISRDNSKNTLYLQMNSLRAEDTAVYYCAKYTGHWEPFDYWGQGTLVTVSS", "nM", 210),
    ("DOM1h-574-7 (other, VH dAb) VH: EVQLLESGGGLVQPGGSLRLSCAASGFTFVKYSMGWVRQAPGKGLEWVSQISNTGGHTYYADSVKGRFTISRDNSKNTLYLQMNSLRAEDTAVYYCAIYTGRWEPFDYWGQGTLVTVSS", "nM", 48),
    ("DOM1h-574-8 (other, VH dAb) VH: EVQLLESGGGLVQPGGSLRLSCAASGFTFVKYSMGWVRQAPGKGPEWVSQISNTGGHTYYADSVKGRFTISRDNSKNTLYLQMNSLRAEDTAVYYCAIYTGRWEPFDYWGQGTLVTVSS", "nM", 5.7),
    ("DOM1h-574-13 (other, VH dAb) VH: EVQLLESGGGLVQPGGSLRLSCAASGFTFVKYSMGWVRQAPGKGLEWVSQISNTGDRTYYADSVKGRFTISRDNSKNTLYLQMNSLRAEDTAVYYCAKYTGRWEPFDYWGQGTLVTVSS", "nM", 44),
]
